system: acetylcholinesterase (AChE, from Electrophorus electricus) (Electrophorus electricus)
Construct: purchased Fluka
Sequence (O42275 24-633): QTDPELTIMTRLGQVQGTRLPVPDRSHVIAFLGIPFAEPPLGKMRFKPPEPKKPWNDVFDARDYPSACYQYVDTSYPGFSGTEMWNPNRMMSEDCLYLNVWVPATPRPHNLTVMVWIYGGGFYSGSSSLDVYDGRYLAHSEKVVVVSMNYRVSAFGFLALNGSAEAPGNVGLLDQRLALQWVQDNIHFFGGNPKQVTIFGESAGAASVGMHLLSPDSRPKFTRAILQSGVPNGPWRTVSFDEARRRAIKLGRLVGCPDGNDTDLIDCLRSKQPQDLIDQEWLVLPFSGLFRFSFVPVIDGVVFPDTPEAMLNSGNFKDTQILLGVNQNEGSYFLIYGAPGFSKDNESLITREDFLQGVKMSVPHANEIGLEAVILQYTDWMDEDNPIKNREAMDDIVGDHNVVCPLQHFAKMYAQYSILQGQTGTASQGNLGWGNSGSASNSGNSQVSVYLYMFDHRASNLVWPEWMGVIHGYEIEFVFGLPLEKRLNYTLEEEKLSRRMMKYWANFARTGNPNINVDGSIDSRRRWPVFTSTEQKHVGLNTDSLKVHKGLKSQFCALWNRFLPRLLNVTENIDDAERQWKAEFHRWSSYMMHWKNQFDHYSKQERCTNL
test.details: Acetylcholinesterase inhibition, Ellman's method
Format: biochemical
test.context: at 50 µM compound
Please mark y if the recorded inhibition at 50 µM is equal to or greater than 20%, and n if it falls below.

{"molecule": "CCCCCCCCCCCCO[C@H]1[C@@H](Cn2c(=O)c3c(ncn3C)n(C)c2=O)OC(NS(C)(=O)=O)[C@@H]1OC(C)=O (stereo partly shown)", "group.label": "n"}
{"molecule": "CCCCCCCCCCCCO[C@H]1[C@@H](Cn2c(=O)c3c(ncn3C)n(C)c2=O)OC(O)[C@@H]1O (stereo partly shown)", "group.label": "n"}
{"molecule": "CCCCCCCCCCCCO[C@@H]1[C@H]2OC(C)(C)O[C@H]2O[C@@H]1Cn1ccc(=O)n(C[C@H]2O[C@@H]3OC(C)(C)O[C@@H]3[C@H]2OCCCCCCCCCCCC)c1=O", "group.label": "y"}
{"molecule": "CCCCCCCCCCCCO[C@@H]1[C@H]2OC(C)(C)O[C@H]2O[C@@H]1Cn1c(=O)cc[nH]c1=O", "group.label": "n"}
{"molecule": "CCCCCCCCCCCCO[C@@H]1[C@H]2OC(C)(C)O[C@H]2O[C@@H]1Cn1cnc2c(N)ncnc21", "group.label": "n"}
{"molecule": "CCCCCCCCCCCCO[C@@H]1[C@H]2OC(C)(C)O[C@H]2O[C@@H]1Cn1c(=O)c2c(ncn2C)n(C)c1=O", "group.label": "n"}
{"molecule": "CCCCCCCCCCCCO[C@@H]1[C@H]2OC(C)(C)O[C@H]2O[C@@H]1COc1ccnc(OC[C@H]2O[C@@H]3OC(C)(C)O[C@@H]3[C@H]2OCCCCCCCCCCCC)n1", "group.label": "y"}
{"molecule": "CCCCCCCCCCCCO[C@@H]1[C@H]2OC(C)(C)O[C@H]2O[C@@H]1Cn1cnc2c(Cl)nc(NC(C)=O)nc21", "group.label": "y"}
{"molecule": "CCCCCCCCCCCCO[C@@H]1[C@H]2OC(C)(C)O[C@H]2O[C@@H]1Cn1ccc(=O)[nH]c1=O", "group.label": "y"}
{"molecule": "CCCCCCCCCCCCO[C@@H]1[C@@H](OC(C)=O)[C@@H](N=[N+]=[N-])O[C@@H]1Cn1c(=O)c2c(ncn2C)n(C)c1=O", "group.label": "n"}

====

system: butyrylcholinesterase (BChE, from equine serum) (Equus caballus, UniProt P81908)
Construct: Butyrylcholinesterase (from equine serum) was bought from Sigma; purchased Sigma; host or cells: equine serum
Sequence (P81908 whole entry): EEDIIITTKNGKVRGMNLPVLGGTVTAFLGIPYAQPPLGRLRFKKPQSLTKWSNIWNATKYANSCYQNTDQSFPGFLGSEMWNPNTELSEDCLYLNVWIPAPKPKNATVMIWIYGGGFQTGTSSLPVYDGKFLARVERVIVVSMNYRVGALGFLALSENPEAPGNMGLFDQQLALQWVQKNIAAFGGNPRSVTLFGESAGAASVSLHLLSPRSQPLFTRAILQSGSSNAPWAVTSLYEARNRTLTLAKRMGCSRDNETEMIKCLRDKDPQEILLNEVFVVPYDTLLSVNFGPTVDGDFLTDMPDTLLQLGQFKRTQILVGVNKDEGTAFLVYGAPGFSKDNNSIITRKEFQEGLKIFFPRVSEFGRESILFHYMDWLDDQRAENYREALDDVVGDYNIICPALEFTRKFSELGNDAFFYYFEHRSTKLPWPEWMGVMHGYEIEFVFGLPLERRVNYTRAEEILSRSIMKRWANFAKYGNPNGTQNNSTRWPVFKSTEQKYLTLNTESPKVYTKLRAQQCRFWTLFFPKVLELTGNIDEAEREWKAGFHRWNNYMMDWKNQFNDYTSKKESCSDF
test.details: Butyrylcholinesterase inhibition, Ellman's method
Assay type: biochemical
test.context: at 50 µM compound
Counter-ions that a name gives are not always drawn.
measured.quantity: inhibition at 50 µM

{"compound": "COc1ccc2c3c1O[C@H]1C[C@@H](O)C=C[C@@]31CCN(C)C2 [Galantamine hydrobromide, galantamine hydrobromide, reference compound]", "measured.quantity": "inhibition at 50 µM", "data.value": "86.3%"}
{"compound": "CCCCCCCCCCCCO[C@H]1[C@@H](Cn2c(=O)c3c(ncn3C)n(C)c2=O)OC(NS(C)(=O)=O)[C@@H]1OC(C)=O (stereo partly shown) [Compound 12]", "measured.quantity": "inhibition at 50 µM", "data.value": "4.6%"}
{"compound": "CCCCCCCCCCCCO[C@@H]1[C@@H](OC(C)=O)[C@@H](N=[N+]=[N-])O[C@@H]1Cn1c(=O)c2c(ncn2C)n(C)c1=O [Compound 13-α]", "measured.quantity": "inhibition at 50 µM", "data.value": "35%"}
{"compound": "CCCCCCCCCCCCO[C@@H]1[C@H]2OC(C)(C)O[C@H]2O[C@@H]1COc1ccnc(OC[C@H]2O[C@@H]3OC(C)(C)O[C@@H]3[C@H]2OCCCCCCCCCCCC)n1 [Compound 9]", "measured.quantity": "inhibition at 50 µM", "data.value": "29.8%"}
